- Test method notes: yeast display, Sf9 membrane polyspecificity reagent, FACS + sequencing; frameworks hold sequencing errors
Reported endpoint: polyreactivity (PSR sort gate)

QVQLVESGGGLVQAGGSLRLSCAASGRTFYWYAMGWYRQAPGKERELVAAIRKTDTSTYYADSVKGRFTISRDNAKNTVYLQMNSLKPEDTAVYYCAARSTYSSGKYGYKYDYWGQGTQVTVSS	high polyreactivity
QVQLVESGGGLFQAGGSLRLSCAASGSIFVGYAMGWYRQAPGKERELVAAITNSGGRTYYADSVKGRFTISRDNAKNTVYLQMNSLKPEDTAVYYCNRVTGKYRYWVGFEYWGQGTQVTVSS	high polyreactivity
QVQLVESVGGLVQAGGSLRLSCAASGNTFYVNVMGWYRQAPGKEREFVAAITWIGGSTYYADSVKGRFTISRDNAKNTVYLQMNSLKPEDTAVYYCAADVYNRWWWRAYDYWGQGTQVTVSS	high polyreactivity
QVQLVESGGGLVQAGGSLRLSCAASGRTFCYAMGWSRQAPGKERELVAAISYRGGGTYYADSVTGRFTISRDNAKYTVYLQMTSLKPEDTEVYFCNARQYRPWYPPYGYDYWGQGTQVTVSS	low polyreactivity

Okay, next one:
Exam item: Reported polyreactivity (PSR sort gate) for `QVQLVESGGGLVQAGGSLRLSCAASGFIFDKYSMGWYRQAPGKERELVAAITDTGGNTYYADSVKGRFTISRDNAKNTVYLQMNILKPEDTAVYYSNADYTDYQTYSATTYEYWGQGTQVTVSS` : what is it?
Marked response: low polyreactivity

----------
- Test method notes: yeast display, Sf9 membrane polyspecificity reagent, FACS + sequencing; frameworks hold sequencing errors
Reported endpoint: polyreactivity (PSR sort gate)

Previously resolved entries follow.
QVQLVESGGGLVQAGGSLRLSCAASGRTFWTNAKGWYRQAPGKERDFFAAISWRGASTFYADSVKGRFTISRYNAKNTVYLQMNSLKPEDTAVYYCAAQSRTRSFYGKYDSWGQGTQVTVSS	low polyreactivity
QVQLVESGGGLVQAGGSLRLSCAASGFTFAVSAMGWYRQAPGKERELVAAISRSGTRTYYADSVKGRFTISRDNAKNTVYLQMNSLKPEDTAVYYCAADKYRHGYDYWGQGTQVTVSS	low polyreactivity
QVHLLESGRGLVQAGGSLRLSCAASGRIFYTNAMGSYRQAPGKERELVAVISWGGDTTYYADSVKGRFTISRDNAKNTVYLQMNSLKPEDTAGYYCNADWGPTYEISDSWGQGNQVTVSS	low polyreactivity
QVQLVESGGGLVQAGGSLRLSCADSGSTFHPYAMGWYRKAPGKERELVAAISWTGGRTYYADSVKGRFTISRDNSKNTVYLQMNSLKPEDTAVYYCAARTYGKVGYWGQGTQVTVSS	high polyreactivity
QGQHVESGGGLVQAGGSLRLSCAASGLTFWVYAMGWYRQPRGKERELVAVITNGGRTNYADSVKGRFTISRDNAKNTVYLLMNSLKPEDSAVYYCARPNLLSGDYWGQGTQVTVSS	high polyreactivity

Exam item: Query (sequence): `QVQIVESGGGLFQAGGSLRISCAASGRIFQYYTMGWYRQAPGKERELVATISRRGGTTYYADSVKGRFTISRDNAKNTVYLQMNSLKPEDTAVYYCNADSRTYRYYWSYGYWGQGTQVTVSS` ; field requested: polyreactivity (PSR sort gate)
Marked response: high polyreactivity

Exam item: What value of measured polyreactivity (PSR sort gate) is listed for `QVQLVESGGGLVQEGGSLRLSCAASGSTFLKYDMGWYRQAPGNERELVAAISWDGGSTYYADSVKGRFTISRDNAKNTVYLQMNSLKPEDTAVYYCNADYDVYLTICYYYGEFDYWGQGTQVTVSS` ?
Marked response: low polyreactivity

Exam item: Suppose we examine the sequence `QVQLGESGGGLVQAGGSLRLSCAASGSILRTYTMGWYRPAPGKERELVAAISSSGGRTYYADSVKGRFTISRDNAKNTVYLQMNSLKPEDTAVYYCNAGGYRYRSYDYWGQGTQVTVSS` ; what polyreactivity (PSR sort gate) value has been reported?
Marked response: high polyreactivity

Exam item: I'd like to know its polyreactivity (PSR sort gate). The sequence in question is `QVQLVESGGGLVQAGGSLRLSCAASGRIFRGYAMGWYRQAPGKERELVAAITSRGGSTYADSVKGRFTISRDNAKNTVYLQMNSLKPEDTAVYYCNAGYRAYSSKLVFRGYPRYDYWGQGTQVTVSS`
Marked response: low polyreactivity

Exam item: For `QVQLVESGGGLVQAGGSLRLSCAASGYTFYPYARGWYRQAPGKGRELVAVITSGDSTYYADSVKGRFTISRDNAKNTVYLQMNSLKPEDSAVYYCNTLGFDYYYYEYDYWVQGTQVTVSS` , what is its reported polyreactivity (PSR sort gate)?
Marked response: low polyreactivity

Exam item: What does the record list as polyreactivity (PSR sort gate) for `QVQLVESGGGLVQAGGSLRLSCAASGSIFARNAMGWYRQAPGKERELVAAISRSGGITYYADSVKGRFTISRDNAKNTVYLQMNSLKPEDTAVYYCATVGYYKGNQVLPAKDGDSWGQGTQVTVSS` ?
Marked response: high polyreactivity

Exam item: Any idea what polyreactivity (PSR sort gate) was measured for `QVQLVESGGGLVQAGGSLRLSCAASGSIFYSYAMGWYRQAPGKARELVATISWAGGRTNYADSVKGRFTISRDNAKNTEYLQMNSLKPEDTAVSYCNKPFPYYPDGPNGYDYWGQGTQVTVSS` ?
Marked response: low polyreactivity

Exam item: What does the record list as polyreactivity (PSR sort gate) for `QVQLVESGRGLVQAGGSLRLSCDASGFIFPWYAMGWYRQAPGKERELVAAITSGGSTTYADSVKGRFTISRDNAKNTVYLQMNSLKPEDTAVYYCAAAYPWGDYGVSDYDYWGQGTQVTVSS` ?
Marked response: high polyreactivity

Exam item: Value lookup for polyreactivity (PSR sort gate); key = `QVQLVESGGGLVQAGGSLRLICAASGYTFALYAIGWYRQATGKERELVAAITDSDGSTYADSVKGRFTISRDNAKNTFYLQMNSLKQEDTAVYYCAARDPHLQGYSYLSYLTMDYWGQGTQVTVSS`
Marked response: low polyreactivity

Exam item: Quick one: polyreactivity (PSR sort gate) for `QDQLVDSGVCLVQARGSLRLSCAASGRIFDAYTMGWYRQAPGKESELVASITGRDGSTYYADSVKGRFTISRDNAKNTVYLQMNSLKPEDTAVDYCNAKYSSFGIRYNYWGQGTQVTVSS` ?
Marked response: high polyreactivity

Exam item: # get_value(readout='polyreactivity (PSR sort gate)', item= `QVQLVESGGGLVQAGGSLRLSCAASGFIIYRYAMGWYRQAPGKEWELVAAISKRGGSTYYADSVKGRFTISRDNAKNTVYLQMNSLKPEDTAVYYCAANRSYVDSTSFGKAYGYWGQGTQVTVSS` )
Marked response: high polyreactivity
